As shown below, each of these compounds has a reported log10 of IC50 value.
studyTarget: interaction between p53 and MDM2 proteins (Homo sapiens, UniProt Q00987)
Sequence (Q00987 whole entry): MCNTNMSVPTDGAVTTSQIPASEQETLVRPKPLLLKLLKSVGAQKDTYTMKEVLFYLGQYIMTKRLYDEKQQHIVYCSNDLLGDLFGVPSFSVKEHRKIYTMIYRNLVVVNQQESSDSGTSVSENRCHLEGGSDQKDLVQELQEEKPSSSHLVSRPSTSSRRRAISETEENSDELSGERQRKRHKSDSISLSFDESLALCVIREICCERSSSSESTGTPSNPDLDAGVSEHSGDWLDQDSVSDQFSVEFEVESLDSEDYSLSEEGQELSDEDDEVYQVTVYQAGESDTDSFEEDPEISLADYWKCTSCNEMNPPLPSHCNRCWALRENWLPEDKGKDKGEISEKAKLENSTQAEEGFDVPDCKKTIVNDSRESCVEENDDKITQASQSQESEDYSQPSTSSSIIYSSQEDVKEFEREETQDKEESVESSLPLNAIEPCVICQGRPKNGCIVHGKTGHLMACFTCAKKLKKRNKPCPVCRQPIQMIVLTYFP
methodSummary: HTRF assay of inhibition of p53-MDM2 interaction (GST-MDM2 / biotinylated p53 peptide)
Scale type: logarithmic (base 10). Underlying IC50 unit: nM.

Consider the worked cases shown below.
[[record]]
compound = "CC(C)(C)CC1N2CN(CC(=O)O)C(=O)C2C(c2cccc(Cl)c2F)C12C(=O)Nc1cc(Cl)ccc12 (racemic) [Example 37]"
observedmeasurement = 1.11

[[record]]
compound = "COc1cc(N2CN3[C@@H](CC(C)(C)C)[C@@]4(C(=O)N(CO)c5cc(Cl)ccc54)[C@@H](c4cccc(Cl)c4F)[C@@H]3C2=O)ccc1C(=O)O (racemic) [Example 16]"
observedmeasurement = 1.40

[[record]]
compound = "COc1cc(N2CN3[C@@H](CC(C)(C)C)[C@@]4(C(=O)N(CO)c5cc(Cl)ccc54)[C@@H](c4cccc(Cl)c4F)[C@@H]3C2=O)ccc1C(N)=O [Example 31]"
observedmeasurement = 1.08

[[record]]
compound = "COc1cc(N2CN3[C@@H](CC(C)(C)C)[C@@]4(C(=O)Nc5cc(Cl)ccc54)[C@@H](c4cccc(Cl)c4F)[C@@H]3C2=O)ccc1C(=O)O (racemic) [Example 18]"
observedmeasurement = 0.85

[[record]]
compound = "CC(C)(C)C[C@H]1N2CN(c3ccc(C(=O)O)cc3)C(=O)[C@@H]2[C@@H](c2cccc(Cl)c2F)[C@@]12C(=O)Nc1cc(Cl)ccc12 [Example 30]"
observedmeasurement = 2.11

[[record]]
compound = "COc1cc(C(=O)O)ccc1N1CN2[C@@H](CC(C)(C)C)[C@@]3(C(=O)Nc4cc(Cl)ccc43)[C@@H](c3cccc(Cl)c3F)[C@@H]2C1=O [Example 21]"
observedmeasurement = 0.78


Query string: Any idea what its log10 of IC50 is? The compound is COc1cc(C(N)=O)ccc1N1CN2[C@@H](CC(C)(C)C)[C@@]3(C(=O)Nc4cc(Cl)ccc43)[C@@H](c3cccc(Cl)c3F)[C@@H]2C1=O [Example 22]
Result string: 0.70

Query string: Consider the compound COc1cc(N2CN3[C@@H](CC(C)(C)C)[C@@]4(C(=O)Nc5cc(Cl)ccc54)[C@@H](c4cccc(Cl)c4F)[C@@H]3C2=O)ccc1C(N)=O (single isomer, unassigned) [Example 25] and give its measured log10 of IC50.
Result string: 0.60
